Target of assay: Fibroblast growth factor 2 (Homo sapiens)
Experiment summary: basic fibroblast growth factor binding to printed compounds – biochemical, small-molecule microarray, 635/667 nm fluorescence, primary screen (AID 1133)
Experimental context: FGF2, fluorescence 635/667, higher = more signal
Attribute measured: composite z-score
One number for each entry.

Guide cases for composite z-score, answers given:
- CCOC(=O)C1=CC[C@@H](c2cccc(Br)c2)N(S(=O)(=O)c2ccc(C)cc2)[C@H]1c1ccc([N+](=O)[O-])cc1: 0.873
- COC(=O)[C@@]1(Cc2ccccc2)[C@H]2c3cc(C(=O)N4CCCC4)n(Cc4ccccc4)c3C[C@H]2CN1C(=O)c1ccccc1: -0.407
- CN1C(=O)C2C=CC(C(O)C3CCCCC3)N(N(c3ccccc3)c3ccccc3)C2C1=O (configuration not stated): -0.732

Consider the following items and state reported composite z-score for each.
1. Cc1ccc(C(C)CC(O)C2C=CC3C(=O)N(Cc4ccccc4)C(=O)C3N2n2cnnc2)o1 (configuration not stated)
2. CC(C)[Si](C#C[Si](C(C)C)(C(C)C)C(C)C)(O[C@H](C)c1cn(Cc2cccc(Cl)c2)nn1)C(C)C
3. CC(C)C[C@@H]1NC(=O)[C@@]23C(=O)N[C@@H](Cc4ccccc4)C2[C@H](C)[C@@]2(C)O[C@H]2C3/C=C/C/C=C\CNC(=O)[C@@H]2CCCN2C1=O (some centres not stated)

Completion:
1: 0.0103; 2: 0.67; 3: 0.392

Prompt: Query: composite z-score; subject: "COc1ccc([Si](C)(C)[C@H]2[C@H](CC(=O)N3CCC[C@H]3CO)O[C@@]3(C(=O)N(Cc4ccc(N5C(=O)c6cccc7cccc5c67)cc4)c4ccccc43)[C@@H]2C)cc1"
Completion: 1.21
